This listing pairs variants with measured protein stability index.
B1: EHMT1 (parent)
chain: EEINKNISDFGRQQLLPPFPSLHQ

- Variants of: B1
- Assay Details: protein stability index of a GFP-peptide fusion (GPS, HEK-293T) (PSI 1-6); higher = more stable;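 further: lentivirally expressed fusions sorted by FACS into six bins by GFP to DsRed ratio, PSI derived from sequencing read proportions per bin multiplied by bin number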
- Condition Description: c terminus: a fixed tail appended
Write the number on its own, no unit after it.

Sample records with protein stability index:
EEINKGISDFGRQQLLPPFPSLHQ [N6G]
2.91
EEINKNISDFGRQQLLPMFPSLHQ [P18M]
2.95
EEINKNISDFGRQQLLPPFPSNHQ [L22N]
4.04
EEINKNISDFGRQQLLPPQPSLHQ [F19Q]
4.38
EEINKNISDFFRQQLLPPFPSLHQ [G11F]
2.02
EEINKNISDFGHQQLLPPFPSLHQ [R12H]
2.77
EEINKNIKDFGRQQLLPPFPSLHQ [S8K]
3.02
EEINKNISDFGRQQLLPPFPSLHK [Q24K]
3.55

Problem: State, in one line, measured protein stability index of EEINKNISDCGRQQLLPPFPSLHQ [F10C]
Result: 2.6

Problem: State, in one line, measured protein stability index of EEINKNISDEGRQQLLPPFPSLHQ [F10E]
Result: 3.37

Problem: State, in one line, measured protein stability index of EEINKNISDFGRQQLLPPFPSLEQ [H23E]
Result: 3.59

Problem: State, in one line, measured protein stability index of EEINKNISDFGRQQLLPPFPSLTQ [H23T]
Result: 3.39

Problem: State, in one line, measured protein stability index of EEINKNISDFGRQLLLPPFPSLHQ [Q14L]
Result: 2.31

Problem: State, in one line, measured protein stability index of EEINKNISDFGNQQLLPPFPSLHQ [R12N]
Result: 3.5

Problem: State, in one line, measured protein stability index of EEINKNISDFMRQQLLPPFPSLHQ [G11M]
Result: 2.85

Problem: State, in one line, measured protein stability index of EEINKNISDFGRQQLLPPFPSLSQ [H23S]
Result: 2.86

Problem: State, in one line, measured protein stability index of EEINKKISDFGRQQLLPPFPSLHQ [N6K]
Result: 2.38

Problem: State, in one line, measured protein stability index of EEINKNISDFGTQQLLPPFPSLHQ [R12T]
Result: 3.52

Problem: State, in one line, measured protein stability index of EEINKNISDFGRQQLQPPFPSLHQ [L16Q]
Result: 3.83

Problem: State, in one line, measured protein stability index of EEINKNISDFGRQDLLPPFPSLHQ [Q14D]
Result: 2.84

Problem: State, in one line, measured protein stability index of EEINKNISDFGRQQLLPPSPSLHQ [F19S]
Result: 4.19

Problem: State, in one line, measured protein stability index of EEINPNISDFGRQQLLPPFPSLHQ [K5P]
Result: 3.06

Problem: State, in one line, measured protein stability index of EEINKNISDFGRQMLLPPFPSLHQ [Q14M]
Result: 2.49
